Listing: DELFIA ELISA response (FU) of selected binders
Molecular target: L3 (DV1-GV8), soluble leucine zipper γδ TCR heterodimer of a delta variable 1 chain and a gamma variable 8 … (human)
Sequence (chain, as listed by the source mutant, chain 1 of 2): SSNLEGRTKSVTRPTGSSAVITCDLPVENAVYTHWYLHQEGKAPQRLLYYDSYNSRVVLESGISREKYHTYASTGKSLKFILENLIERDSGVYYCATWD
Sequence (chain, as listed by the source mutant, chain 2 of 2): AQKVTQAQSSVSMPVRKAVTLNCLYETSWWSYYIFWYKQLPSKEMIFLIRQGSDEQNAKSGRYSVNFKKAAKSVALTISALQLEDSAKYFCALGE
Assay: DELFIA ELISA, coated antigen;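 note: binding of antibody supernatants or protein-A purified antibodies to plate-coated antigen (3 µg/ml recombinant TCR or BSA), 1 h incubation at room temperature, DELFIA readout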
Please state the figure in FU; there is no need to write the unit.

# input binder: G4_13 (antibody, human IgG1, V domains shown, also called clone G4_13) VH: QVQLVESGAEVKKPGGSLRLSCAASGFTFSSYSMNWVRQAPGKGLEWVSSISGTSSYIYYADSVKGRFTISRDNAKNSLYLQMSSLRAEDTAVYYCARGGLGMVDPWGQGTLVTVSS VL: SNFMLTQPHSVSESPGKTVTISCTRSSGSIASNYVQWYQQRPGSSPSTVIYEDNQRPSGVPDRFSGSIDSSSNSASLTISGLRTEDEADYYCQSYDSSIYVVFGGGTKLTVLG ; wanted: its DELFIA ELISA response (FU)
270

Now look at this entry.
Report DELFIA ELISA response (FU) for G4_20 (antibody, human IgG1, V domains shown, also called 1254_P02_G02; clone G4_20) VH: QVQLVESGAEVKKPGASVKVSCKASGGTFSSYAISWVRQAPGQGLEWMGGIIPIFGTANYAQKFQGRVTITVDKSTRTAYMELSSLRSKDTAVYYCARGNSRSDAFDIWGQGTMVTVSS VL: SSYELTHPPSVSVSPGQTASITCSGDKLGDKFVSWYHQKPGQSPVLVIYQDSKRPSGIPERFSGSNSGNTATLTISGTRAMDEADYYCQAWDSSTVVFGGGTKLTVLG please.
239

Source: patent US20230090901A1
